# assay_protocol: Absorbance and fluorescence maximum wavelengths and quantum yields of the CyNA library
# Type: physicochemical
# test_parameters: CyNA library
# Method: Since the k values of the different CyNA compounds indicated some dependency on the chemical structure of the amine, the CyNA scaffold was derivatized with a broad range of primary amines (FIGS. 4A-4C). The fluorescence properties of the 80-member CyNA library were measured. The absorption maximum wavelengths ranged from 802 nm to 806 nm, emission maximum wavelengths ranged from 817 nm to 823 nm, and the average quantum yield was approximately 0.10 (Table 2). […]
outcome_measure: λabs, absorbance maximum wavelength
Please make sure the unit comes right after the number.

Here is how some compounds turned out for λabs, absorbance maximum wavelength.
### Prompt λabs, absorbance maximum wavelength for CCCN1/C(=C/C=C2\CCCC(/C=C/C3=[N+](CCC)c4ccccc4C3(C)C)=C2N(Cc2ccccc2C)C(C)=O)C(C)(C)c2ccccc21 ?
### Response 806 nm

### Prompt Next: CCCN1/C(=C/C=C2\CCCC(/C=C/C3=[N+](CCC)c4ccccc4C3(C)C)=C2N(CCc2ccc(OC)c(OC)c2)C(C)=O)C(C)(C)c2ccccc21
### Response 804 nm

### Prompt Input CCCN1/C(=C/C=C2\CCCC(/C=C/C3=[N+](CCC)c4ccccc4C3(C)C)=C2N(CCC(C)(C)C)C(C)=O)C(C)(C)c2ccccc21
### Response 805 nm

### Prompt For CCCN1/C(=C/C=C2\CCCC(/C=C/C3=[N+](CCC)c4ccccc4C3(C)C)=C2N(CCCCc2ccccc2)C(C)=O)C(C)(C)c2ccccc21 then?
### Response 804 nm

***
### Prompt # λabs, absorbance maximum wavelength lookup, item CCCN1/C(=C/C=C2\CCCC(/C=C/C3=[N+](CCC)c4ccccc4C3(C)C)=C2N(Cc2ccc(OC)c(OC)c2)C(C)=O)C(C)(C)c2ccccc21
### Response 805 nm

### Prompt Same lookup for CCCN1/C(=C/C=C2\CCCC(/C=C/C3=[N+](CCC)c4ccccc4C3(C)C)=C2N(CCc2ccccn2)C(C)=O)C(C)(C)c2ccccc21.[I-] , please.
### Response 804 nm

### Prompt Lookup CCCCCCCCCCCCCCN(C(C)=O)C1=C(/C=C/C2=[N+](CCC)c3ccccc3C2(C)C)CCC/C1=C\C=C1\N(CCC)c2ccccc2C1(C)C
### Response 804 nm

### Prompt Same question for CCCN1/C(=C/C=C2\CCCC(/C=C/C3=[N+](CCC)c4ccccc4C3(C)C)=C2N(Cc2ccco2)C(C)=O)C(C)(C)c2ccccc21 please.
### Response 804 nm

### Prompt // repeat for CCCCCCCCCCCCCN(C(C)=O)C1=C(/C=C/C2=[N+](CCC)c3ccccc3C2(C)C)CCC/C1=C\C=C1\N(CCC)c2ccccc2C1(C)C and report
### Response 804 nm

### Prompt Query CCCN1/C(=C/C=C2\CCCC(/C=C/C3=[N+](CCC)c4ccccc4C3(C)C)=C2N(CCCOC)C(C)=O)C(C)(C)c2ccccc21.[I-] next
### Response 806 nm

### Prompt Next: CCCN1/C(=C/C=C2\CCCC(/C=C/C3=[N+](CCC)c4ccccc4C3(C)C)=C2N(Cc2ccc(Cl)cc2Cl)C(C)=O)C(C)(C)c2ccccc21
### Response 804 nm

### Prompt Same lookup for CCCN1/C(=C/C=C2\CCCC(/C=C/C3=[N+](CCC)c4ccccc4C3(C)C)=C2N(CCCOC(C)C)C(C)=O)C(C)(C)c2ccccc21 , please.
### Response 805 nm
